# SUBJECT_OF_TEST: T1, RSV F subtype A, furin-cleaved ectodomain stabilized in the postfusion conformation (F ΔFP) (Respiratory syncytial virus subtype A, UniProt P03420 26-109; P03420 147-524)
# T1 construct: extracellular domain; Trimeric soluble antigen; also called Postfusion subtype A
# TEST_PROTOCOL: BLI, IgG on AHQ sensor, 100 nM antigen
The entries below come with measured pKd values attached.
Here pKd is given on a logarithmic scale as minus log10 of the concentration in mol/L.

Check out these entries, answers already filled in.
BINDER	pKd
ADI-18948 (antibody, V domains shown, full-length IgG from yeast; also called Antibody Number 300; Ab # 300) VH: EVQLLESGGGVVQSGRSLRLSCVASGFTFSDSGMHWVRQAPGKGLEWVAGLFYDGSNKQYADSVKGRFTISRDNSKSTLYLQMNSLRAEDTAVYYCARAPYDIWSGYCLDYWGQGTLVTVSS VL: EIVLTQSPATLYMSPGERATLSCRASQSVNNNLAWYQQRPGQAPRLLIYGASTRATGIPARFSGSGSETEFTLTISSLQSEDFAVYHCQQYSIWPQTFGQGTKLEIK	9.59
ADI-18946 (antibody, V domains shown, full-length IgG from yeast) VH: QVQLVQSGGGVVQPGRSLRLSCAASGFTFSDYAMHWVRQAPGKGLEWVAIISYDANNKYYADSVKGRFTISRDNSKNTVYLQMNSLRPEDTAVYYCAKEEWLVPAYWGQGILVTVSS VL: QSVLTQPASVSGSPGQSITISCTGTSSDVGGYNYVSWYQQHPGKAPKLLIYEVSNRPSGVSNRFSGSKSGNTASLTISGLQPEDEADYYCSSYSTNSAPFGTGTKLTVL	9.69
ADI-18911 (antibody, V domains shown, full-length IgG from yeast) VH: QVQLVESGAEARKPGESLKISCKASGYSFTNYWIGWVRQMPGKGLEWMGVIYPADSDTRYSPSFKGQVTISADKSISTAYLQWTRLKASDTAVYFCARLGIGAAARNYWGQGTLVTVSS VL: DIQVTQSPSSLSASVGDRVTITCQASQDISDSLNWYQQKPGKAPNLLIYDASKSETGVPSRFSGSGSGTDFTFTISSLQPEDLATYYCLQFDNLPPTFGQGTRLEIK	9.45
ADI-18968 (antibody, V domains shown, full-length IgG from yeast) VH: EVQLVESGPGLVKPSQTLSLTCTVSDVLISSGDYYWSWIRQSPGKGLEWLGYIYYTGKTKYNPSLESRITMSVDTSKNQFSLRLSSVTAADTAVYFCTRDLGYSTSSPSFYYGMDVWGQGTTVTVSS VL: EIVLTQSPATLSLSPGERATLSCRASQSVGTYLAWYQQKPGQAPRLLIYDASYRVTGIPARFSASGSATDFTLTISSLEPEDFAVYFCQQRTNWPITFGQGTRLEIK	9.36
ADI-18876 (antibody, V domains shown, full-length IgG from yeast) VH: QVQLQESGPGLVKPSQTLSLTCTVSGPSISSGDYYWTWIRQPPGKGLEWIGYIYNSGSTDYNPSLKSRITMSLDRSKNQFSLNLSSVTAADTAVYFCARDVGTLVLPTVAYYYGMDVWGQGTTVTVSS VL: EIVLTQSPGTLSLSPGERATLSCRASESISSSYLAWYQQKPGQAPRLLIYDASSRATGIPDRFSGSGSGTDFTLTISSLEPEDFAVYYCQQYGSSPLVTFGPGTKVDIK	8.77

Turning now to a further record.
# input May I ask what pKd has been recorded for ADI-18924 (antibody, V domains shown, full-length IgG from yeast) VH: QVQLVQSGAEVKKPGESLKISCQGSGYSFSSFWIVWVRQMPGKGLEWMGSIYPGDSDTRYTPSFQGQVTISADKSTSTAYLQWNSLKPSDTAMYYCARCSLSCDYYGVNLWGQGTTVTVSS VL: QSVVTQPPSVSGAPGQRVTISCSGSSSNIGARSDVHWYQQLPGKAPKLLIYGNTNRPLGVPDRFSGSTSGTSASLAISGLQAEDEGYYYCQSYDSSLSGFYVFGTGTKLTVL ?
# output 9.39

src = patent US20200223906A1
